Ref: patent US6303626A

- procedure summary: Solubility in different media / solvents
- Assay type: physicochemical
- test conditions: dmso, organic solvent or mixture; read-out: Solubility in dimethyl sulfoxide (DMSO)
attribute measured: solubility (mg/mL)

> print(dat)
                                smiles.data  attribute.measured  unit.tag  meas.value
1  CC(C)Oc1cccc(CC(=O)N2CCC[C@](CC[N+]34CCC(c5ccccc5)(CC3)CC4)(c3ccc(Cl)c(Cl)c3)C2)c1          solubility     mg/mL         168

* * *

- procedure summary: Solubility of compound A in water at the saturation point, 24 h, room temperature, UV spectrometry
- Type: physicochemical
- test conditions: water; pH 1; 24 hours, room temperature; read-out: Concentration of compound A (solubility in water at saturation)
attribute measured: solubility at 24 h (µg/mL)

> print(dat)
                                smiles.data  meas.value
1  CC(C)Oc1cccc(CC(=O)N2CCC[C@](CC[N+]34CCC(c5ccccc5)(CC3)CC4)(c3ccc(Cl)c(Cl)c3)C2)c1         310
